Cited source for all entries: the DeepSol protein solubility set

- protocol text: soluble on expression in E. coli; label from the status in PepcDB or PDB records
property measured: soluble on expression in E. coli

MMKNMARKNQKAPWEEEEEIIWVSRTELKNDMLALQKLGEELVELKPSALAKFPLPEDLAEAIKDAQRFKNEARRRQLQYIGKLMRHIDPEPLQAALDKLRNKHSQTTALLHKLEQLRDRIVAEGDSAIEVAMEQYPEADRQRLRLLARQASKEKAGNKPPKSSREIFQLLKEAMLAKQEIEEESEDDLDSAE: not soluble
MSTPIPPSSPPSTPTTRANNRTKSFSGTGTVATTACICGNVPIALSANTLADSLKVSPLYKQQDSARWNAAAQVYRTSRAVSPTLEEKEKFGFDNAYINQMISPKMSIPKTPISLEEIADMNRKRHEVEGGVIPSDDDVGPLELEAIAAVHELAHEVQDISVSEMLPRTSDLIFVNVKTQEGSPYTLELTMKGWRIASSHTDCMNGDYTKISLHTKYYRNARELLKFISPDHATRFNECVAQKLSKLAEVAVQ: not soluble
